Molecular target: UniProtKB P08684
Sequence (P08684 whole entry): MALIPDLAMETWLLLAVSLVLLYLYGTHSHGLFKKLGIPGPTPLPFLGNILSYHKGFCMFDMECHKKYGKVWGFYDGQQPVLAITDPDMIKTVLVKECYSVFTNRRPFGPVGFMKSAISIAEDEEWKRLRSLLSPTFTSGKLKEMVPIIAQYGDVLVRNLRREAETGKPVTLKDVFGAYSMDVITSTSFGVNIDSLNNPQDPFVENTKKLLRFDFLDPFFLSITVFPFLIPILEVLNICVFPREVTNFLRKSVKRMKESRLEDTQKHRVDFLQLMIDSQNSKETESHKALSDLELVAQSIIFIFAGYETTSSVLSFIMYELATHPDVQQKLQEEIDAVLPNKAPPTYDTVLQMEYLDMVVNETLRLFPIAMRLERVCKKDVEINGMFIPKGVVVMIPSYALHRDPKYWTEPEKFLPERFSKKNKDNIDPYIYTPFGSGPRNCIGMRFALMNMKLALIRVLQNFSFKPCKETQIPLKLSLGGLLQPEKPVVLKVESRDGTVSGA
Assay: Inhibition of CYP3A4 in human liver microsomes at 3 uM
Format: ADME
Property measured: inhibition at 3 µM

Smiles record	System	inhibition at 3 µM
CC[C@@H]1[C@H](F)C(=O)N[C@@H]1COc1nccc2cc(C(N)=O)c(OC)cc12	UniProtKB P08684	< 5%

API: the following record is the query input.
[ask] // returns reported inhibition at 3 µM for input CC(C)Oc1cc2c(OC[C@@H]3CCC(=O)N3)nccc2cc1C(N)=O
[reply] < 10%

----------
Test: Half life in Beagle dog at 5 mg/kg, po administered as single dose
Type: ADME, organism-based, Canis lupus familiaris
Settings: in vivo
Property measured: half-life (h)
One number for each entry, in h.

[ask] // returns reported half-life for input CC[C@@H]1[C@H](F)C(=O)N[C@@H]1COc1nccc2cc(C(N)=O)c(OC)cc12
[reply] 4
